Test system: MDA-MB-435 melanoma
Experiment: NCI-60 one-dose screen, 48 h
Settings: 10 µM
The panel holds about 83,000 compounds, 20% with a hit somewhere; the sample as a whole holds those more often. Activity calls are given as the source filed them. How the source made its calls: active means growth percent below 10; inactive means the rest.
Outcomes: T for active, F for inactive

• C#Cc1ccc(-n2c(/C=C/c3ccc4ccccc4n3)nc3ncccc3c2=O)cc1 = T
• COc1ccc(-c2nn(-c3cccc(NC(=O)c4cc(C(F)(F)F)cc(C(F)(F)F)c4)c3)cc2-c2ccncc2)cc1Cl = T
• Cc1ccc2oc3nc(C)c(C(=O)NCc4ccccc4)cc3c(=O)c2c1 = F
• COc1cc(Nc2ncnc(Nc3ccc4c(n3)NC(=O)C(C)(C)O4)n2)cc(OC)c1OC = F
• CN(C)c1ccc(-c2cc(-c3cccc(NS(C)(=O)=O)c3)nc(N)c2C#N)cc1 = T
• COc1ccc(-c2nn(-c3cccc(NC(=O)Nc4cccc(C(F)(F)F)c4)c3)cc2-c2ccncc2)cc1Cl = T
• Nc1ncn([C@@H]2O[C@H](CO)[C@@H](O)[C@H]2O)c(=O)n1 = F
• O=C(Nc1nc2ccc(F)cc2s1)c1cc(-c2ccc(F)cc2)n2nc(-c3ccccc3)cc2n1 = F
• CCCCN(CCCC)CCCCCCCCC(O)c1cc2ccccc2c2ccccc12 (centres undefined) = F
